Tested on: A549
test protocol: Cytotoxicity against human A549 cells by SRB assay
Assay type: functional, cell-based
reported property: IC50 (µM)
Just the number please, in µM, no unit attached.

Query block: Field request: IC50 | item: `Cc1oc2ccc3c(C)cc(=O)n(CCN(C)C)c3c2c1C`
Result block: 30.4

Query block: Name the reported IC50 value associated with the molecule `Cc1oc2ccc3c(C)cc(=O)n(CCCN(C)C)c3c2c1C`
Result block: 29.6

Query block: For the molecule `Cc1oc2ccc3c(C)cc(=O)[nH]c3c2c1C` , what IC50 is on record?
Result block: 99.3

Query block: What value of measured IC50 is listed for `Cc1oc2ccc3c(C)cc(=O)n(CC(=O)NCCN(C)C)c3c2c1C` ?
Result block: 20.4

* * *

Tested on: DNA
test protocol: Binding affinity to calf thymus DNA by fluorescence quenching technique
Assay type: nucleic-acid assay
condition label: Bos taurus
// boundary case: Kb equal to 3 ×10⁵ /M maps to n; strictly smaller maps to y

Query block: In plain terms, does `Cc1oc2ccc3c(C)cc(=O)n(CCN(C)C)c3c2c1C` come in under 3 ×10⁵ /M for Kb?
Result block: y

Query block: Lab note: confirm whether the reported Kb for this compound is below 3 ×10⁵ /M, equality not counting. compound: `CCOC(=O)Cn1c(=O)cc(C)c2ccc3oc(C)c(C)c3c21`
Result block: y

Query block: State whether 3 ×10⁵ /M exceeds Kb recorded for `Cc1oc2ccc3c(C)cc(=O)n(CC[N+](C)(C)C)c3c2c1C` .
Result block: n

Query block: Confirm or reject: Kb of `Cc1oc2ccc3c(C)cc(=O)n(CC(=O)NCCN(C)C)c3c2c1C` lies strictly below 3 ×10⁵ /M
Result block: y

Query block: # TODO verify Kb < 3 ×10⁵ /M strictly for this compound: `Cc1oc2ccc3c(C)cc(=O)n(CC(=O)O)c3c2c1C`
Result block: y

Query block: Determine if `Cc1oc2ccc3c(C)cc(=O)n(Cc4ccccc4)c3c2c1C` shows Kb strictly lower than 3 ×10⁵ /M.
Result block: n

Query block: State whether 3 ×10⁵ /M exceeds Kb recorded for `Cc1oc2ccc3c(C)cc(=O)n(CCCN(C)C)c3c2c1C` .
Result block: y

Query block: Hello, is Kb of the following compound strictly smaller than 3 ×10⁵ /M? `Cc1oc2ccc3c(C)cc(=O)n(CC#N)c3c2c1C`
Result block: y

Query block: Item `Cc1oc2ccc3c(C)cc(=O)[nH]c3c2c1C` : Kb beneath 3 ×10⁵ /M, strictly?
Result block: y

Query block: Please state whether Kb is below 3 ×10⁵ /M for `CCn1c(=O)cc(C)c2ccc3oc(C)c(C)c3c21`
Result block: y

* * *

For each of the molecules below, state its IC50.
System: A549
test protocol: Cytotoxicity against human A549 cells by SRB assay
Assay type: functional, cell-based

Query block: Form field - read-out: IC50; system: A549; submitted item: `CCn1c(=O)cc(C)c2ccc3oc(C)c(C)c3c21`
Result block: > 100 µM

Query block: Lab request: please report IC50 under test system A549 for `Cc1oc2ccc3c(C)cc(=O)n(Cc4ccccc4)c3c2c1C`
Result block: > 100 µM

Query block: Give IC50 (A549) of the following molecule: `CCOC(=O)Cn1c(=O)cc(C)c2ccc3oc(C)c(C)c3c21`
Result block: > 100 µM

Query block: Param readout= IC50; system= A549; entry= `Cc1oc2ccc3c(C)cc(=O)n(CC#N)c3c2c1C` ; returns value.
Result block: > 100 µM
